# experimental.target: Homeobox protein Hox-A13 (Mus musculus)
# test: inhibitors of HoxA13-DNA binding, primary screen, biochemical, fluorescence polarization, labeled oligonucleotide (AID 1185)
# measurement.conditions: 15 min, higher = more signal, called active from +8 up or from −8 down
Active and inactive are the calls of the source.

{"input.smiles": "COc1ccc(C#Cc2ccc3c(c2)[C@]2(C(=O)N3)[C@H](c3ccc(O)cc3)N3[C@H](c4ccccc4)[C@H](c4ccccc4)OC(=O)[C@H]3[C@@H]2C(N)=O)cc1", "z-score": "-0.123 (inactive)"}
{"input.smiles": "COCCOC(=O)N1C(=O)[C@@]2(c3cc(C#CCCO)ccc31)[C@H](c1ccccc1OCCO)N1[C@H](c3ccccc3)[C@H](c3ccccc3)OC(=O)[C@H]1[C@@H]2C(=O)NC[C@H](O)c1ccccc1", "z-score": "-0.117 (inactive)"}
{"input.smiles": "O=C(N1CCCCC1)[C@@]1(Cc2ccccc2)N=C(c2ccc(OCCCO)cc2)O[C@H]1c1ccccc1", "z-score": "-3.68 (inactive)"}
{"input.smiles": "COc1ccc([Si](C)(C)[C@@H]2[C@@H](CCn3cc(CCO)nn3)O[C@]3(C(=O)N(Cc4ccc(N5C(=O)c6cccc7cccc5c67)cc4)c4ccccc43)[C@H]2C)cc1", "z-score": "-1.56 (inactive)"}
{"input.smiles": "C=C(C(=O)CC[C@H](OC(C)=O)c1ccc(CO)o1)C(C)C", "z-score": "-2.79 (inactive)"}
{"input.smiles": "COc1ccc([Si](C)(C)[C@H]2[C@H](CCO)O[C@@]3(C(=O)N(Cc4ccc(N5C(=O)c6cccc7cccc5c67)cc4)c4ccccc43)[C@@H]2C)cc1", "z-score": "-0.82 (inactive)"}

====

# Test system: Chordin-like protein 2 (CHRDL2)
# test: CHRDL2 small-molecule binders, primary screen, biochemical, small-molecule microarray, 635 nm fluorescence (AID 1126);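 note: printed compound slides probed with Chrdl2 protein at 4 µg/mL for 1 h at 4 C; score merges 667 nm emission intensity with signal to noise over three replicate slides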
# measurement.conditions: small-molecule microarray binding, fluorescence 635 nm; higher = more signal
# binarize composite z-score: threshold -0.5 inclusive, high side Satisfied, low side Not satisfied

{"compound": "COC(=O)[C@@]1(CCC(=O)OC(C)(C)C)COC(c2ccc(OCCCO)cc2)=N1", "assigned.class": "Not satisfied"}
{"compound": "CC(C)(C)OC(=O)CC[C@]1(C(=O)NCc2ccccc2)N=C(c2ccc(OCCCO)cc2)O[C@H]1c1ccccc1N=[N+]=[N-]", "assigned.class": "Satisfied"}
{"compound": "COc1c(C)cc(-c2cc3c(c(CCc4ccccc4)n2)[Si](C(C)C)(C(C)C)OC3)cc1C", "assigned.class": "Satisfied"}
{"compound": "[N-]=[N+]=NCc1ccccc1C[C@@]1(C(=O)NCc2ccccc2)N=C(c2ccc(OCCCO)cc2)O[C@@H]1c1ccccc1", "assigned.class": "Not satisfied"}
{"compound": "CCOC(=O)C[C@H]1[C@H](OC(=O)c2ccc(-c3ccccc3)cc2)[C@@H](NC(=O)c2ccccc2)c2cc(OCCCO)ccc2N1C(=O)c1ccccc1", "assigned.class": "Not satisfied"}
{"compound": "CC(C)[C@@H](C(=O)O)n1cc(-c2ccccn2)nn1", "assigned.class": "Satisfied"}
{"compound": "NC(=O)N1C(=O)C2C(C1=O)C1C=C(c3ccc(CO)cc3)C2C(C2CC2)N1Cc1cc2c(cc1Br)OCO2 (stereo not drawn)", "assigned.class": "Satisfied"}
